Values compiled from PubChem BioAssay (Tox21).

molecular target: Cytochrome P450 2C19 (Homo sapiens); assay: Cytochrome P450 Family 2 Subfamily C Member 19 (CYP2C19) small molecule antagonists: luciferase reporter qHTS assay (AID 1671197); details: P450-Glo CYP2C19 enzyme, luciferin luminescence, 1 h; series mostly up to 115 µM; also: nearly all actives have a fitted effect of over 65% in size
Records with an inconclusive call do not appear. Active and inactive are the calls of the source. Calls follow the shape of the dose curve; as a rule, active = well fitted inhibition curve with a large enough effect in the repeat runs; inconclusive = weak or mixed curves; inactive = no such curve, though single readings can be large or run the other way.
The reply should name one outcome from active, inactive

[
  {
    "molecule": "CCCOC(C)=O",
    "target.of.assay": "Cytochrome P450 2C19 (Homo sapiens)",
    "group.label": "inactive"
  },
  {
    "molecule": "Cc1ccc(S(=O)(=O)NC(=O)NC2CCCC2)cc1",
    "target.of.assay": "Cytochrome P450 2C19 (Homo sapiens)",
    "group.label": "inactive"
  },
  {
    "molecule": "CC(=O)Nc1ccn(C2COC(COC(=O)c3ccccc3)O2)c(=O)n1 (configuration not stated)",
    "target.of.assay": "Cytochrome P450 2C19 (Homo sapiens)",
    "group.label": "inactive"
  },
  {
    "molecule": "CCCCCC1CCC(=O)O1 (configuration not stated)",
    "target.of.assay": "Cytochrome P450 2C19 (Homo sapiens)",
    "group.label": "inactive"
  },
  {
    "molecule": "S=c1[nH][nH]c(=S)s1",
    "target.of.assay": "Cytochrome P450 2C19 (Homo sapiens)",
    "group.label": "active"
  }
]

Test call, this molecule: C=CC(C)CCC=C(C)C (configuration not stated)
inactive

Can you check CC(C)Cc1nccs1 next?
active

Can you check CC[C@H](NC(C)C)[C@H](O)c1ccc(O)c2[nH]c(=O)ccc12 next?
inactive

Can you check Cc1nc(C)c(C)nc1C next?
inactive

Can you check CC(C)NC(=O)c1ccccc1N next?
inactive

Can you check Clc1cccc(C(c2ccc3nc[nH]c3c2)n2ccnc2)c1 (configuration not stated) next?
active

Can you check O=Cc1ccc(Cl)c([N+](=O)[O-])c1 next?
active

---

assay: qHTS RealTime-Glo MT Cell Viability Assay in HepG2 cells - 0 hour (AID 1224889); conditions: RealTime-Glo luminescence; series mostly up to 76.8 µM; also: nearly all actives have a fitted effect of over 50% in size
Inconclusive results are not listed. Calls of active or inactive are those of the source. Calls follow the shape of the dose curve; as a rule, active = well fitted cell-killing curve with a large enough effect in the repeat runs; inconclusive = weak or mixed curves, or effect the other way; inactive = flat fitted curve, though single readings scatter.
metric.name: activity change, negative = cytotoxicity

Please review the entries below; each comes with its answer.
[
  {
    "molecule": "Cc1c(Nc2ncccc2C(=O)O)cccc1C(F)(F)F",
    "activity change, negative = cytotoxicity": "inactive"
  },
  {
    "molecule": "O=C(O)c1cccnc1Nc1cccc(C(F)(F)F)c1",
    "activity change, negative = cytotoxicity": "inactive"
  },
  {
    "molecule": "O=C1c2ccccc2C(=O)c2c1ccc(O)c2O",
    "activity change, negative = cytotoxicity": "inactive"
  },
  {
    "molecule": "OCCOc1cccc(OCCO)c1",
    "activity change, negative = cytotoxicity": "inactive"
  },
  {
    "molecule": "O=C(O)c1ccc(O)c(O)c1",
    "activity change, negative = cytotoxicity": "inactive"
  },
  {
    "molecule": "Clc1nc2ccccc2nc1Cl",
    "activity change, negative = cytotoxicity": "inactive"
  }
]

Can you look up the measured activity change, negative = cytotoxicity of C=CC(C)(O)CC/C=C(/C)CCC=C(C)C (centres undefined) for me?
inactive

Can you check C[C@H](CN1CCCC1)C(=O)c1ccc(C(F)(F)F)cc1 next?
inactive

Can you check O=c1c2ccccc2oc2ccccc12 next?
inactive

Can you check CCCCCC1CCC(=O)O1 (centres undefined) next?
inactive

---

experiment: A CellTox Green Cytotoxicity Assay to monitor cytotoxicity in HEK293 cells - 32 hour (AID 1224881); conditions: CellTox Green fluorescence; series mostly up to 76.8 µM; also: nearly all actives have a fitted effect of over 40% in size
Inconclusive results are not listed. Active and inactive are the calls of the source. Calls come from the whole dose curve; as a rule, active = well fitted activation curve with a large enough effect in the repeat runs; inconclusive = weak or mixed curves; inactive = flat fitted curve, though single readings scatter.
The reply should name one outcome from label 1 (active), label 0 (inactive)

Consider the following illustrative entries.
[
  {
    "compound": "COc1ccnc2c1CCCCC2S(=O)c1nc2ccccc2[nH]1 (stereo not drawn)",
    "group.label": "label 0"
  },
  {
    "compound": "O=C(OCCOCCOCCOC(=O)c1ccccc1)c1ccccc1",
    "group.label": "label 0"
  }
]

Test call, this compound: N#CCCCC(C#N)CCC#N (stereo not drawn)
label 0

Can you check OCCc1ccncc1 next?
label 0

Can you check Cc1ccccc1CCO next?
label 0

Can you check O=C(OC1C[C@H]2CC[C@@H](C1)[N+]21CCCC1)C(O)(c1ccccc1)c1ccccc1 (stereo partly drawn) next?
label 0

Can you check O=C1CCCN1CCO next?
label 0

Can you check CCCCOC(=O)C(C)Oc1ccc(Oc2ccc(C(F)(F)F)cn2)cc1 (stereo not drawn) next?
label 0

Can you check CCOCCn1c(N2CCCN(C)CC2)nc2ccccc21 next?
label 0

---

assay: qHTS assay to identify small molecule agonists of the farnesoid-X-receptor (FXR) signaling pathway - cell viability counter screen (AID 743218); conditions: FXR-bla HEK293T viability, CellTiter-Glo luminescence, 16 h; series mostly up to 62.6 µM; also: nearly all actives have a fitted effect of over 45% in size
Results filed as inconclusive are left out. The source made the active and inactive calls. Calls come from the whole dose curve; as a rule, active = well fitted cell-killing curve with a large enough effect in the repeat runs; inconclusive = weak or mixed curves, or effect the other way; inactive = no such curve, though single readings can be large or run the other way.
The reply should name one outcome from true (1) (active), false (0) (inactive)

Consider the following illustrative entries.
[
  {
    "compound": "CC(C)CC(C)(C)C",
    "group.label": "false (0)"
  },
  {
    "compound": "O=Cc1ccc([N+](=O)[O-])cc1",
    "group.label": "false (0)"
  },
  {
    "compound": "CCC(=O)O[C@]1(C(=O)COC)[C@@H](C)C[C@H]2[C@@H]3CCC4=CC(=O)C=C[C@]4(C)C3(F)[C@@H](O)C[C@@]21C (stereo partly drawn)",
    "group.label": "false (0)"
  },
  {
    "compound": "CCCCOC(=O)CC#N",
    "group.label": "false (0)"
  },
  {
    "compound": "O=C(O)c1cccc(C(=O)O)c1C(=O)O",
    "group.label": "false (0)"
  },
  {
    "compound": "Nc1cccc2c(=O)[nH][nH]c(=O)c12",
    "group.label": "false (0)"
  },
  {
    "compound": "O=C(c1ccc(Cl)cc1)c1ccc(Cl)cc1",
    "group.label": "false (0)"
  },
  {
    "compound": "O=c1[nH][nH]c2ccccc12",
    "group.label": "false (0)"
  }
]

Test call, this compound: Cc1c(-c2cccnc2)c2ccccc2n1CCCCC(=O)O
false (0)

Can you check CCCCCCCCCCCCCCCCC(=O)O next?
false (0)

Can you check Cc1c(Cl)cccc1Nc1ccccc1C(=O)O next?
false (0)

Can you check CCC(C)C1N=C(C)C(C)S1 (stereo not drawn) next?
false (0)

Can you check CC1=C(C)C(=O)C(CCCCC#CCCCC#CCO)=C(C)C1=O next?
false (0)

Can you check COC(=O)c1cc(Cl)ccc1[N+](=O)[O-] next?
false (0)

Can you check Oc1ccc(CCNCCCCCCNCCc2ccccc2)cc1O next?
false (0)

Can you check C[Si](C)(C)O[Si](C)(C)O[Si](C)(C)C next?
false (0)

Can you check C1CCN(CN2CCCCC2)CC1 next?
false (0)

Can you check c1ccc(CN(Cc2ccccc2)Cc2ccccc2)cc1 next?
false (0)

---

assay: qHTS assay for small molecule agonists of the p53 signaling pathway (AID 651631); conditions: HCT-116 p53RE-bla reporter, beta-lactamase FRET ratio, 16 h; series mostly up to 73.3 µM; also: nearly all actives have a fitted effect of over 15% in size
Results filed as inconclusive are left out. Activity calls are given as the source filed them. Calls come from the whole dose curve.
The reply should name one outcome from YES for active, NO for inactive

Consider the following illustrative entries.
[
  {
    "compound": "FC1(F)C(F)(F)C(F)(F)C2(F)C(F)(C1(F)F)C(F)(F)C(F)(F)C1(F)C(F)(F)C(F)(F)C(F)(F)C(F)(F)C12F (stereo unspecified)",
    "group.label": "NO"
  },
  {
    "compound": "CC(=O)c1cccnc1",
    "group.label": "NO"
  },
  {
    "compound": "[O-][n+]1ccc(Cl)cc1",
    "group.label": "NO"
  },
  {
    "compound": "CCCCCCCCCCCCSC#N",
    "group.label": "NO"
  },
  {
    "compound": "Cc1cccc(C)c1NC(=O)CN1CCCC1",
    "group.label": "NO"
  },
  {
    "compound": "Cc1nc(C)c(C)nc1C",
    "group.label": "NO"
  },
  {
    "compound": "CC(C)NC(=O)c1ccccc1N",
    "group.label": "NO"
  },
  {
    "compound": "C[C@H]1C[C@H]2[C@@H]3CCC4=CC(=O)C=C[C@]4(C)[C@@]3(F)[C@@H](O)C[C@]2(C)[C@@]1(O)C(=O)COP(=O)(O)O",
    "group.label": "NO"
  },
  {
    "compound": "CC(C)(C)NCC(O)COc1ccc(NC(=O)NC2CCCCC2)cc1 (stereo unspecified)",
    "group.label": "NO"
  },
  {
    "compound": "OCCCO",
    "group.label": "NO"
  }
]

Test call, this compound: O=c1[nH][nH]c2ccccc12
NO

Can you check O=C(O)COCC(=O)O next?
NO

Can you check CC(C)Cc1nccs1 next?
NO

Can you check CC/C=C/CCO next?
NO

Can you check CC(=O)S[C@H](C(=O)N[C@H]1Cc2ccccc2[C@H]2CCC[C@@H](C(=O)O)N2C1=O)C(C)C next?
NO

Can you check Cc1c(Cl)cccc1[N+](=O)[O-] next?
NO

Can you check O=C(O)c1ccccc1-n1cc(C(=O)O)c(=O)c2cc(Nc3c(F)cc(F)cc3Cl)c(Cl)cc21 next?
NO

Can you check CC(=O)Nc1ccn(C2COC(COC(=O)c3ccccc3)O2)c(=O)n1 (stereo unspecified) next?
YES

Can you check CCOC(=O)CC(O)(CC(=O)OCC)C(=O)OCC next?
NO

Can you check COC(=O)/C=C/C(C)=C\C=C\C(C)=C\C=C\C=C(C)\C=C\C=C(C)\C=C\C(=O)O next?
NO

Can you check CCCCCCCCCCCCCCCCC(=O)O next?
NO

Can you check O=C(O)c1cc(C(=O)O)cc([N+](=O)[O-])c1 next?
NO

Can you check C=C[Si]1(C)O[Si](C)(C=C)O[Si](C)(C=C)O[Si](C)(C=C)O1 (stereo unspecified) next?
NO

Can you check CCOc1ccccc1O next?
NO

Can you check CC(C)(C)N next?
NO

Can you check Nc1ccc(-c2ccc(F)cc2)cc1 next?
NO
